Measured pIC50 accompanies every entry in the list below.
Test system: Plasmodium falciparum
protocol_notes: Antiplasmodial activity against chloroquine-sensitive Plasmodium falciparum D6 infected in red blood cells after 72 hrs by Malstat reagent based LDH assay
Format: functional, cell-based
recorded_conditions: D6, 72 h
Quick note: pIC50 means taking -log10 of the concentration in moles per liter.

Consider the reported pIC50 for these molecules:
mol	pIC50
Cc1cc(N(CCCNc2ccnc3cc(Cl)ccc23)Cc2ccc3c(c2)OCO3)nc(Cl)n1	6.34
Cc1cc(N(CCCNc2ccnc3cc(Cl)ccc23)Cc2ccc3c(c2)OCO3)nc(N2CCCC2)n1	7.30

Okay, next one:
Quick note, pIC50 for `Cc1cc(Cl)nc(N(CCCNc2ccnc3cc(Cl)ccc23)Cc2ccc3c(c2)OCO3)n1` landed at 5.95

The reported numbers originate from ChEMBL document CHEMBL4011605.
